SYSTEM_UNDER_TEST: α-Glucosidase (E.C.3.2.1.20) enzyme (Saccharomyces cerevisiae) (Saccharomyces cerevisiae, UniProt P53341)
Sequence (P53341 whole entry): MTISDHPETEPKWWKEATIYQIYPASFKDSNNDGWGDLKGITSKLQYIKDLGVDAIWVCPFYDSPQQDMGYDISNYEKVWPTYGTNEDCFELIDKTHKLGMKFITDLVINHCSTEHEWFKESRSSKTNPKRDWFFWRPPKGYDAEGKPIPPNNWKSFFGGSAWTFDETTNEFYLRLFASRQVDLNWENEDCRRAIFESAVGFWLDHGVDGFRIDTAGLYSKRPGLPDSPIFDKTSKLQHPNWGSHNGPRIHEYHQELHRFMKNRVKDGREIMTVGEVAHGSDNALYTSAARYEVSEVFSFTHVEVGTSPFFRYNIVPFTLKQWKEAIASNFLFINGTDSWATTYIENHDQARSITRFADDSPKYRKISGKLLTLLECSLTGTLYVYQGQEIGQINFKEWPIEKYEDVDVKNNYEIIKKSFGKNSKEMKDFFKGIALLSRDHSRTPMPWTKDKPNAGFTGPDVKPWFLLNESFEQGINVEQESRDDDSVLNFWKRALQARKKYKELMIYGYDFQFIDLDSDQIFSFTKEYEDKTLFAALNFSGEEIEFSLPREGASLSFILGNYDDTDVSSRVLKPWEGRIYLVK
EXPERIMENT_DESCRIPTION: biochemical
Type: biochemical
ASSAY_CONDITIONS: IC50 (Table 2, repeated beside docking results), S. cerevisiae α-glucosidase
Method: α-Glucosidase (E.C.3.2.1.20) enzyme (Saccharomyces cerevisiae) inhibition activity was carried out by using previously described method. […] After incubation, 0.7 mM p-nitrophenyl-α-D-glucopyranoside (a chromogenic substrate) was added and the change in absorbance was recorded at 400 nm for 30 min by microplate spectrophotometer (xMark™, BIO-RAD, California, LA, United States) per production of p-nitrophenyl. […] The IC50 values were calculated by using different concentrations of tested compounds. […]
QUANTITY_KIND: IC50 (µM)

INSERT INTO results (smiles_repr, scale_unit, recorded_number) VALUES
  ('CCCCCCCCC=CCCCCCCCCCC(=O)O', 'µM', 480),
  ('C/C=C(\CC[C@@H](C)[C@H]1CC[C@H]2[C@@H]3CC=C4C[C@@H](O)CC[C@]4(C)[C@H]3CC[C@]12C)C(C)C', 'µM', 289);

###

SYSTEM_UNDER_TEST: α-Glucosidase (E.C.3.2.1.20) enzyme (Saccharomyces cerevisiae) (Saccharomyces cerevisiae)
EXPERIMENT_DESCRIPTION: biochemical
Type: biochemical
ASSAY_CONDITIONS: S. cerevisiae α-glucosidase; read-out: IC50 (Table 2, repeated beside docking results)
QUANTITY_KIND: IC50 (µM)

INSERT INTO assay_data (compound, recorded_number) VALUES
  ('CCCCCCCCCCCCCCCCCCCCCCCCCC(=O)O [Compound 6, Cerotic acid]', 660);
